Assay: qHTS assay to test for compound auto fluorescence at 460 nm (blue) in HEK293 cell free culture (AID 720681); note: % is set by controls: 0 for no effect and ±100 for the full control effect
Settings: cell-free medium, autofluorescence 405/460 nm (blue); series mostly up to 91.3 µM
Calls of active or inactive are those of the source. Calls come from the whole dose curve; as a rule, active = well fitted curve in the direction sought with a large enough effect in the repeat runs; inconclusive = weak or mixed curves; inactive = flat fitted curve, though single readings scatter.
readout: fluorescence, % of fluorescent control

Some solved entries appear below for comparison.
C=CC(=O)NCOCC(C)C
inactive
O=C(O)c1snc(Cl)c1Cl
inactive
C(=C\c1ccccc1)/CN1CCN(C(c2ccccc2)c2ccccc2)CC1
0.0548% [at 18.6 µM] (inactive)
CC(=O)Oc1ccc2c(c1)CC[C@@H]1[C@@H]2CC[C@]2(C)[C@@H](O)CC[C@@H]12
inactive

// input: 2 molecules below; output: fluorescence, % of fluorescent control for each
1. Cc1nc2ccccc2s1
2. Cc1c(C(=O)NN2CCCCC2)nn(-c2ccc(Cl)cc2Cl)c1-c1ccc(Cl)cc1

inactive
inactive

Every entry's value here was drawn from PubChem BioAssay (Tox21).
